meta.source: patent US20250186425A1

- assay-target: PPARG/RXRA LBD heterodimer (Homo sapiens (Human))
- protocol: PPARG-NCOR1 recruitment assay (TR-FRET)
- Assay type: biochemical
- setup-conditions: TR-FRET, biotinylated NCOR1 ID2 peptide, 80 nM Rosiglitazone, 3 hours; read-out: PPARG-NCOR recruitment assay EC50
measure-name: EC50

* CS(=O)(=O)c1ccc(C#N)cc1-c1cc(=O)c2c(Oc3ccc(Cl)cc3)cc(F)cc2[nH]1 [Example 1] | 100 to 1000 nM
* CS(=O)(=O)c1ccc(C#N)cc1-c1cc(=O)c2c(Cc3ccc(Cl)cc3)cc(F)cc2[nH]1 [Example 7] | 10 to 100 nM
* Cn1cc(Oc2cc(F)cc3[nH]c(-c4cc(C#N)ccc4S(C)(=O)=O)cc(=O)c23)cn1 [Example 3] | 1000 to 10000 nM
* N#Cc1ccc(Cl)c(-c2cc(=O)c3c(Oc4ccc(Cl)cc4)cc(F)cc3[nH]2)c1 [Example 2] | 100 to 1000 nM

---

- assay-target: PPARG/RXRA LBD heterodimer (Homo sapiens (Human), UniProt P37231)
- Sequence (P37231 whole entry, looked up, the tested form may be a part): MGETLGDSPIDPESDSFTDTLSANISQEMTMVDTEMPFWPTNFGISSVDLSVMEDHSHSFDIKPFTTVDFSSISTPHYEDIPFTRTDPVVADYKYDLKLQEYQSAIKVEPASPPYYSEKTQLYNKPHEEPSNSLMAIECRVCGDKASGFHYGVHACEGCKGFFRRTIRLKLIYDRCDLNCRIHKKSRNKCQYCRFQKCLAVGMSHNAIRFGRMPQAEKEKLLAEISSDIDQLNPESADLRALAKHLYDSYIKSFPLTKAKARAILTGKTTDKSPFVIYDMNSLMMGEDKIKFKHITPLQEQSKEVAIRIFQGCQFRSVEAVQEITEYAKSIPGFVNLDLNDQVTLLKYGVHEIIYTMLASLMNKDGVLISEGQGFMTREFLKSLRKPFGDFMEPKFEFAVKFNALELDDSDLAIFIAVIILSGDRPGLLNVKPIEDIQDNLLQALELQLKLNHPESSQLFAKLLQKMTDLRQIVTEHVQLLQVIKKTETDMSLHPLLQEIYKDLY
- Sequence (P19793 whole entry partner, looked up, the tested form may be a part): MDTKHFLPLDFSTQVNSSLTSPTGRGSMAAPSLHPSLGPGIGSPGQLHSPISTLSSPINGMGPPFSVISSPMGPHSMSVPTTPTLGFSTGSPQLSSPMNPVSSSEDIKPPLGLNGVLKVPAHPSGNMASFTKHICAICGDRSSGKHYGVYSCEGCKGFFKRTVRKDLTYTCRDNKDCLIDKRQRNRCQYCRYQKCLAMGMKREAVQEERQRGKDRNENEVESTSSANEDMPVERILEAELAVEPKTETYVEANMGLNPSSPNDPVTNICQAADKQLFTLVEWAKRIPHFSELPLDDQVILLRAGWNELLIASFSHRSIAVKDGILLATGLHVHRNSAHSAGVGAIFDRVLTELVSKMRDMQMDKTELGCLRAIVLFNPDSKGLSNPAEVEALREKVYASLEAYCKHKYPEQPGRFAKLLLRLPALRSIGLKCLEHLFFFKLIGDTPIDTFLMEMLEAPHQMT
- protocol: PPARG-MED1 blockade assay (TR-FRET)
- Assay type: biochemical
- setup-conditions: TR-FRET, biotinylated MED1 LxxLL peptide, 80 nM Rosiglitazone, 3 hours; IC50
- Description: Compound potency (IC50) and maximal extent of MED1 repulsion to PPARG were assessed a TR-FRET binding assay measuring association of a biotinylated MED1 LxxLL peptide (Biotin-[…]-amide) to PPARG/RXRA LBD heterodimer. […]
pEC50: −log10 of the molar value.
measure-name: pEC50

• N#Cc1ccc(Cl)c(-c2cc(=O)c3c(Oc4ccc(Cl)cc4)cc(F)cc3[nH]2)c1 [Example 2] = 6.00 to 7.00
• N#Cc1ccc(Cl)c(-c2cc(=O)c3c(Oc4ccc(Cl)nc4)cc(F)cc3[nH]2)c1 [Example 5] = 6.00 to 7.00
• Cn1cc(Oc2cc(F)cc3[nH]c(-c4cc(C#N)ccc4S(C)(=O)=O)cc(=O)c23)cn1 [Example 3] = 5.00 to 6.00
• CS(=O)(=O)c1ccc(C#N)cc1-c1cc(=O)c2c(Cc3ccc(Cl)cc3)cc(F)cc2[nH]1 [Example 7] = 6.00 to 7.00

---

- Tested on: HT1197 (RXRA S427F mutation) cells
- protocol: Bladder cancer pharmacodynamic assay, HT1197 cell assay (qPCR of PPARG target gene ANGPTL4)
- Assay type: cell-based
- setup-conditions: Homo sapiens, 24 hours treatment, qPCR
The following compounds are listed with their measured EC50 values.
measure-name: EC50 (nM)

- CS(=O)(=O)c1ccc(C#N)cc1-c1cc(=O)c2c(Oc3ccc(Cl)cc3)cc(F)cc2[nH]1: 0.8
- Cn1cc(Oc2cc(Cl)cc3[nH]c(-c4cc(C#N)ccc4S(C)(=O)=O)cc(=O)c23)cn1: 0.35

---

- assay-target: PPARG/RXRA LBD heterodimer (Homo sapiens (Human))
- protocol: PPARG-NCOR1 recruitment assay (TR-FRET)
- Assay type: biochemical
- setup-conditions: TR-FRET, biotinylated NCOR1 ID2 peptide, 80 nM Rosiglitazone, 3 hours; read-out: PPARG-NCOR recruitment assay EC50
pEC50: −log10 of the molar value.
measure-name: pEC50

• Cn1cc(Oc2cc(Cl)cc3[nH]c(-c4cc(C#N)ccc4S(C)(=O)=O)cc(=O)c23)cn1 = 6.00 to 7.00
• N#Cc1ccc(Cl)c(-c2cc(=O)c3c(Oc4ccc(Cl)nc4)cc(F)cc3[nH]2)c1 = 6.00 to 7.00
• N#Cc1ccc(Cl)c(-c2cc(=O)c3c(OCc4ccc(Cl)cc4)cc(F)cc3[nH]2)c1 = 6.00 to 7.00
